molecular target: Potassium voltage-gated channel subfamily KQT member 2 (Rattus norvegicus); assay: KCNQ2 potentiation in CHO cells – cell-based, FluxOR thallium flux, counter-screen for hERG block protector project, confirmation (AID 1942); settings: FluxOR thallium flux fluorescence, at 10 µM, stronger effect = higher value;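 also: normalized value minus buffer-control mean plus three SD of buffer wells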
Hit rate of the full screen: of about 2,400 compounds, about 580 (24%) were called active. The list is a sample of the results.
recordedMetric: activity change, less the hit threshold (%)
Output spec: scalar in %, unitless text.

Lookup: Supply reported activity change, less the hit threshold belonging to this molecule: COc1cc(NC(=O)CSc2ncnc3sc4c(c23)CCC(C)C4)c(C(=O)O)cc1OC (stereo not drawn)
Found: 89.6

Lookup: Specify activity change, less the hit threshold for CC(=O)CSc1ncnc2sc3c(c12)CCC(C)C3 (stereo not drawn) and stop.
Found: 89.9

Lookup: Note activity change, less the hit threshold for the molecule shown: CN1C(=O)C2(OCC(C)([N+](=O)[O-])CO2)c2ccccc21 (stereo not drawn)
Found: -9.8
